// reported pKd per item
# tgt: T1, huCD3e-mFc (human, UniProt P07766 23-126)
# T1 construct: not shown: mFc, not described
# run.description: Pool 3 screen, R3
pKd: −log10 of the molar value.
recorded.endpoint: pKd

[[record]]
binder = "AC3885 (CD3.381) (scFv, V domains shown, Pool 3 format (remarks)) VH: EVQLVESGGGIVQPGGSLRLSCAASGFTFSTYAMNWVRQAPGKGLEWVGRIRTKRNNYATYYADSVKGRFTISRDDSKNTVYLQMNSLKTEDTAVYYCVRHENFGASYVSWFAHWGQGTLVTVSS VL: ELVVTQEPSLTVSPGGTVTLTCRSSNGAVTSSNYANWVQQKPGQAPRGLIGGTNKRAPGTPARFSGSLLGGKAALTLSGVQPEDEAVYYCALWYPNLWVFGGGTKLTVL"
number = 8.38

[[record]]
binder = "AC3796 (CD3.292) (scFv, V domains shown, Pool 3 format (remarks)) VH: EVQLVESGGGIVQPGGSLRLSCAASGFTFSTYAMNWVRQAPGKGLEWVGRIRTKRNNYATYYADSVKGRFTISRDDSKNTVYLQMNSLKTEDTAVYYCVRHENFGNSYVSWFAHWGQGTLVTVSS VL: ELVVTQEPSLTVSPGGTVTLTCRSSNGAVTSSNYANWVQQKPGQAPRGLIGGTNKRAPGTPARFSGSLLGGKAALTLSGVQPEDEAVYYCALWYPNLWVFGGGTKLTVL"
number = 8.52

[[record]]
binder = "AC3813 (CD3.309) (scFv, V domains shown, Pool 3 format (remarks)) VH: EVQLVESGGGIVQPGGSLRLSCAASGFTFSTYAMNWVRQAPGKGLEWVGRIRTKRNDYATYYADSVKGRFTISRDDSKNTAYLQMNSLKTEDTAVYYCVRHENFGNSYVSWFAHWGQGTLVTVSS VL: ELVVTQEPSLTVSPGGTVTLTCRSSNGAVTSSNYANWVQQKPGQAPRGLIGGTNKRAPGTPARFSGSLLEGKAALTLSGVQPEDEAVYYCALWYPNLWVFGGGTKLTVL"
number = 8.27

